Measured values drawn from ChEMBL document CHEMBL5104090 for this set.

Entries with their measured Ki, system Carbonic anhydrase 9 (Homo sapiens):
reported.metric: Ki (nM)

* CCN(CC)c1ccc(/C=N/NC(=O)c2ccc(S(N)(=O)=O)cc2)c(O)c1 | 15.8
* NS(=O)(=O)c1ccc(CCn2c(SCc3ccc(Br)cc3)nc3ccccc3c2=O)cc1 | 19.3

a: CCSc1nc2ccccc2c(=O)n1CCc1ccc(S(N)(=O)=O)cc1
b: O=c1c2ccccc2nc(SCCN2CCCCC2)n1CCc1ccccc1
c: NS(=O)(=O)c1ccc(C(=O)N/N=C/c2cccc(O)c2)cc1
Ask: Order by Ki, ascending. Could you list the labels in the order requested?
Reply: c, b, a
